log10 IC50 values, listed per item
Tested on: primary rat renal proximal tubule epithelial cells (RPTECs)
Assay: In vitro toxicity, MTT assay
Assay type: cell-based
Conditions: 24 hr treatment, rat RPTECs, MTT; read-out: Inhibitory concentration IC50
Parameter value (number): base-10 log of IC50 in µM.

{"columns": ["Compound", "log10 IC50"],
 "data": [
  ["CNC(=O)CN(CCN(CCN(CC(=O)[O-])CC(=O)NC)CC(=O)[O-])CC(=O)[O-].[Gd+3] [Gadodiamide, gadodiamide, reference compound]", 4.49],
  ["CC1=Nc2ccccc2OCCOCCOc2ccccc2N=C(C)c2cccc1n2.O.O.[Cl-].[Cl-].[Mn+2] [Compound 5, [MnL6Cl2].2H2O]", 2.32],
  ["CC1=NCCNCCNCCN=C(C)c2cccc1n2.O.O.O.[Cl-].[Cl-].[Cl-].[Gd+3] [Compound 7, [GdL1Cl3].3H2O]", 2.96],
  ["CC1=NCCOCCOCCN=C(C)c2cccc1n2.O.O.[Cl-].[Cl-].[Mn+2] [Compound 2, [MnL2Cl2].2H2O]", 2.83]
]}

Attention now shifts to the item below.
**Query** Dear colleague, I am looking for the recorded log10 IC50 of the following compound: CC1=NCCNCCNCCN=C(C)c2cccc1n2.O.O.[Cl-].[Cl-].[Mn+2] [Compound 1, [MnL1Cl2].2H2O]
**Result** 3.74
